Catalogue of Percent Effect values
Test system: Plasmodium falciparum
Procedure Details: Calibr Malaria Delayed Death Assay SOP
Format: functional, organism-based
Set-up: scale not given: in the data most compounds retested in dose-response had high values
Experimental Setup: concentration 4.99e-06 (unit not given; other assays of the set use mol/L)
In all, about 38,000 compounds went through this assay and about 1,200 (3.2%) showed an effect of 50% or more. The median lay at about -58%. For the sample, strong results were picked, then their nearest neighbours and some compounds at random.
Measured Quantity: Percent Effect (%)

Compound | Result Number
COC(C)(C)C(=O)NCC1CCN(Cc2cc3ccccc3[nH]2)C1 (centres undefined) | -53.37
CCC(CNC(=O)c1cncc(Br)c1)N1CCc2ccccc2C1 (centres undefined) | 65.67
Cc1csc(CNC(=O)NCC(C)Cn2nc(C)cc2C)n1 (centres undefined) | -114.8
Cc1ccc(S(=O)(=O)Nc2ccc(-n3ccnc3C)nc2)cc1N(C)C | -25.67
CN(C)CC1(O)CCN(S(=O)(=O)c2cccc(F)c2)C1 (centres undefined) | 65.12
CCCc1nc(CN(CC)Cc2ccoc2)no1 | -101
O=C(O)C(F)(F)F.O=C(O)C(F)(F)F.c1cncc(OC[C@@H]2CCC[C@@]23CN(Cc2nccs2)CCO3)c1 | -94.41
O=C(c1csnn1)N1CCCC(n2cncn2)C1 (centres undefined) | -97.91
O=C(C1CCOC1)N1CCN(Cc2ccncc2)c2ncccc2C1 (centres undefined) | -72.96
Cn1cc(NC(=O)CNC(=O)N2CCN(c3ccc(Cl)cc3)CC2)cn1 | 2.407
O=C(O)C(F)(F)F.O=C1C[C@H]2[C@@H](CCN2C(=O)c2ccoc2)N1CCN1CCOCC1 | -16.54
COC(=O)C(C)(C)NC(=O)c1cnc(Cc2ccc(F)cc2)s1 | 74.7
Cc1ccc(NC(=O)CN2CCC(OCC3CCCO3)CC2)c(C)c1 (centres undefined) | -25
CN(C)S(=O)(=O)N1CC[C@]2(O)CCN(CCCc3cccnc3)C[C@@H]2C1 | -68.67
Cc1nc(C)c2c(n1)CCN(Cc1nccn1C)CC2.O=C(O)C(F)(F)F | -117.5
CN(C)S(=O)(=O)N1CC[C@]2(O)CCN(Cc3cccc(F)c3)C[C@@H]2C1 | 18.33
CC(C)(O)CCc1cccc(C(=O)NCc2cnn3cccnc23)c1 | -126.6
CCC(=O)NC(c1ccc(C)cc1)c1cccc(S(C)(=O)=O)c1 (centres undefined) | -119.8
COc1ccc(Br)c(NC(=O)NCc2cnn(C)c2)c1 | -45
O=C1CN(C(=O)c2ccc(F)cc2)CC(O)CN1Cc1cccs1 (centres undefined) | 88.73
CC(=O)N1CCC(C(=O)NCc2ncc(-c3ccccc3)o2)CC1 | -123.2
COc1c(CNCc2cccc(Cn3cccn3)c2)c(C)nn1C | 6.408
CC(C)(C(=O)NCC1CCN(Cc2cccnc2)C1)c1ccccc1 (centres undefined) | 51.87
CCSc1ncc(-c2cc(C3CC3)nc(N)c2C#N)cn1 | 1.431

----------
Catalogue of Percent Effect values
System: Plasmodium falciparum
Procedure Details: Calibr Malaria Delayed Death Assay SOP
Format: functional, organism-based
Set-up: scale not given: in the data most compounds retested in dose-response had high values
Experimental Setup: concentration 4.99e-06 (unit not given; other assays of the set use mol/L)
Hit rate of the full screen: of about 38,000 compounds, about 1,200 (3.2%) showed an effect of 50% or more. The median lay at about -58%. Shown is part of a subset that was picked to be rich in strong results.
Measured Quantity: Percent Effect (%)

Molecule | Measured Quantity | Result Number
Cc1ccc(CNCC2CCCN2c2cccnn2)s1 (stereo not given) | Percent Effect | 44
Cc1cn2c(n1)C(CNCc1cccc3c1OCO3)CCC2 (stereo not given) | Percent Effect | 81.04
CCC(C)N(Cc1ccc(C)cc1)Cc1c[nH]c(C)n1 (stereo not given) | Percent Effect | 77.78
CCO[C@H]1COC[C@@H]1NC(=O)CCc1nc(-c2ccccc2)no1 | Percent Effect | -93.65
OC1CCN(Cc2ccc(CNc3ncc(Cl)cc3F)cc2)CC1 | Percent Effect | 26.38
COc1ccccc1N1CCC(N2CCOCC(CO)C2)CC1 (stereo not given) | Percent Effect | 27.34
Fc1cccc(C2(CNC3CCSC3)CCOCC2)c1 (stereo not given) | Percent Effect | -47.45
c1cc(CNCc2ccnc(N3CCCC3)c2)c2c(c1)OCO2 | Percent Effect | -28.94
COc1ccc(C(C)NCc2c[nH]nc2C)cc1OC.Cl (stereo not given) | Percent Effect | -66.18
Cc1cc(S(=O)(=O)N2CCCc3ccccc32)sc1C(=O)O | Percent Effect | -124.8
CNc1cc(N2CCCC2CNCc2cccc(C#N)c2)ncn1 (stereo not given) | Percent Effect | -40.51
COc1ccc(CNC(C)c2cccc(Cl)c2)c(OC)c1OC (stereo not given) | Percent Effect | 42.06
Cl.NCC1(c2cccc(Br)c2)CCOCC1 | Percent Effect | 78.65
COCCN1CCC(CNC(=O)CCc2cc(F)ccc2F)C1 (stereo not given) | Percent Effect | -6.086
COc1cc(CN2CCCCCC2c2cccs2)cc(OC)c1O (stereo not given) | Percent Effect | -97.62
COc1cc(CCC(=O)NC2CCCN(C)C2)ccc1OCC(F)(F)F (stereo not given) | Percent Effect | 27.9
COc1cccc(CN2CCCCCC2c2sccc2C)c1O (stereo not given) | Percent Effect | -12.07
COc1cccc(CN2CCCCCC2c2cccs2)c1O (stereo not given) | Percent Effect | 1.572
COCCCN(CCOC)C(=O)Nc1ccccc1Br | Percent Effect | -3.396
Cc1cccc(OC2CCN(Cc3ncc[nH]3)CC2)c1 | Percent Effect | 7.466
CC(C)(CNC(=O)C1(c2cccc(Br)c2)CCOCC1)C(=O)O | Percent Effect | -116.6
Cc1ncc2c(n1)CN(Cc1nc3ccccc3o1)CC2 | Percent Effect | -59.98
c1ccc(CN2CCC(NCCSc3cnn[nH]3)CC2)cc1 | Percent Effect | -21.85
CC(C)(C)OC(=O)N1CCN(S(=O)(=O)CCCC#N)C2(CCCCC2)C1 | Percent Effect | -7.011
CC1c2ncc(Cn3cccn3)n2CCN1Cc1ccccn1.O=C(O)C(F)(F)F.O=C(O)C(F)(F)F (stereo not given) | Percent Effect | -97.72
O=C(COc1ccc(Cl)cc1)N1CCOCC1c1ncon1 (stereo not given) | Percent Effect | -73.82
CCN(CC)CCn1cnc(-c2ccccc2)c1-c1ncc[nH]1 | Percent Effect | -50.85
COc1cccc(CN2CCCCCC2c2cccc(F)c2)c1O (stereo not given) | Percent Effect | 55.91
COc1cccc(CCC(=O)N2CCCCC2Cn2cccn2)c1 (stereo not given) | Percent Effect | -142.5
COc1ccc(CNC(C)c2ccccc2Cl)c(OC)c1OC.Cl (stereo not given) | Percent Effect | 74.88
CC(C)(C)n1ncc2c1NC(=O)CC2c1c(F)cccc1F (stereo not given) | Percent Effect | -175.8
Clc1cc(Cl)cc(CN2CCC(NCc3ncc[nH]3)CC2)c1 | Percent Effect | 83.8
CCn1cc(CNC2CCN(c3cccc(Cl)c3)C2)cn1 (stereo not given) | Percent Effect | 17.81
COc1ccc2c(c1)C1(CCNCC1)CC2NC1CC1.Cl.Cl (stereo not given) | Percent Effect | -4.171
COc1cccc(CN2CCCCCC2c2cccc(C)c2)c1O (stereo not given) | Percent Effect | 56.55
Cl.Cn1nc(C2CCCN(Cc3ccccc3)C2)c2nccnc21 (stereo not given) | Percent Effect | -32.54
CCN(CC)c1ccc(-c2ccc(C)c(S(N)(=O)=O)c2)nn1 | Percent Effect | -97.64
Clc1cccc(N2CCC(NCc3ncc[nH]3)C2)c1 (stereo not given) | Percent Effect | 65.12
O=C(c1ccc2c(c1)OCO2)N1CCCSCC1CN1CCCC1 (stereo not given) | Percent Effect | -7.883
COc1c(C)cnc(CN2CCOC(Cn3cc(C)cn3)C2)c1C (stereo not given) | Percent Effect | -74.84

----------
System: Plasmodium falciparum
Procedure Details: Calibr Malaria Delayed Death Assay SOP
Format: functional, organism-based
Parameters: scale not given: in the data most compounds retested in dose-response had high values
Experimental Setup: concentration 4.99e-06 (unit not given; other assays of the set use mol/L)
Out of some 38,000 compounds screened, about 1,200 (3.2%) showed an effect of 50% or more. The median lay at about -58%. Shown is part of a subset that was picked to be rich in strong results.
I would appreciate it if you labelled entries Condition met when Percent Effect is -50% or higher, otherwise Condition not met.

Molecule | Qualitative Label
O=C(CCCn1cncn1)NC1CCc2nccn2C1 (stereo not drawn) | Condition met
CCCS(=O)(=O)N1CCC2(CC1)CC(Nc1ncccn1)CO2 (stereo not drawn) | Condition not met
CC(NC(=O)c1ccc(Cl)cc1)c1nnc(SCC(=O)O)n1C (stereo not drawn) | Condition not met
CC(c1ccncc1)N(C)S(C)(=O)=O (stereo not drawn) | Condition not met
COCCC(=O)N1CCC2(CCCN2Cc2ccccc2)C1 (stereo not drawn) | Condition not met
COc1ccc(C(NCc2cccc(C#N)c2)C(C)C)cc1 (stereo not drawn) | Condition met
CNC(=O)COc1ccc(-c2ccccc2)nc1 | Condition met
CCn1cc(CN2CCCN(C3Cc4ccccc4C3)CC2)cn1 | Condition met
CNC(=O)C1(c2cnccn2)CCCN1C(=O)c1cccnc1OC (stereo not drawn) | Condition not met
CCS(=O)(=O)N1CCN(CCn2cccn2)c2nc(C)ccc2C1.O=C(O)C(F)(F)F | Condition not met
CCN(CC)C(=O)c1ccc(-n2ncc(C#N)c2N)cc1 | Condition met
Cc1cnc(NC(=O)c2ccc(-n3ncc(C#N)c3N)cc2)s1 | Condition not met
NC(=O)c1ccc(CN2CCCC(N3CCCCCC3)C2)cc1 (stereo not drawn) | Condition not met
COCCN1CCN(Cc2c(C)noc2C)Cc2ccc(C)nc21.O=C(O)C(F)(F)F.O=C(O)C(F)(F)F | Condition not met
COc1ccc(NC(=O)c2ccc(-n3ncc(C#N)c3N)cc2)cn1 | Condition met
Cc1nc2c(c(NC3CCN(Cc4cccnc4)CC3)n1)CCNCC2 | Condition not met
Cc1noc(C)c1CN1CCN(CCN(C)C)c2ncccc2C1.O=C(O)C(F)(F)F.O=C(O)C(F)(F)F.O=C(O)C(F)(F)F | Condition met
CCC(NCc1ccccn1)c1ccccc1OCC(=O)NC (stereo not drawn) | Condition met
COc1ccc(OCC2CCCN(Cc3ccncc3)C2)cc1 (stereo not drawn) | Condition met
CCn1cc(CN2CCCC(COc3ccccc3F)C2)cn1 (stereo not drawn) | Condition met
COc1cc(C2CC(=O)Nc3c2c(=O)[nH]n3C2CCCCC2)ccc1O (stereo not drawn) | Condition not met
Cc1nc(CN2CCC(N(C)Cc3noc(C4CC4)n3)C2)oc1C (stereo not drawn) | Condition not met
